System: L02 cells
Experiment: CCK-8 cell viability assay, L02 cells
Assay type: cell-based, human
Details: Homo sapiens, L02, read-out: IC50 toward L02 cells

>  <structureString>
O=c1ccc2ccc3occc3c2o1

>  <IC50 [µM]>
77.9

$$$$

###

System: HepG2 cells
Assay: ALP, ALT and AST in cell culture supernatant, HepG2 cells
Type: cell-based, human
Conditions: 46 μmol/L, 24 h
measuredParameter: ALP level, times higher than control (times)

>  <structureString>
CC(C)=CCc1cc2c(cc1O)oc(=O)c1c3ccc(O)cc3oc21

>  <dataValue>
5.7

$$$$

###

System: HepG2 cells
Assay: ALP, ALT and AST in cell culture supernatant, HepG2 cells
Assay type: cell-based, human
Conditions: 46 μmol/L, 24 h

>  <structureString>
CC(C)=CCc1cc2c(cc1O)oc(=O)c1c3ccc(O)cc3oc21

>  <AST level, times higher than control, times>
5.4

$$$$
